tested system: ALK (Homo sapiens)
Construct: host or cells: baculovirus expression system
assay details: ALK Kinase Assay (ELISA/TRF, PLC-γ substrate)
Type: biochemical
assay conditions: ALK Kinase Inhibition; read-out: ALK Potency
pIC50: −log10 of the molar value.
property label: pIC50

Please review the following examples before continuing.
[
  {
    "molecule": "COc1ccc(-c2ccc3cnc(Nc4ccc(CN5CCCC5)cc4)nn23)cn1",
    "property label": "pIC50",
    "measured result": "5.00 to 6.00"
  },
  {
    "molecule": "COc1ccc(Cl)cc1-c1ccc2cnc(-n3cnc4cnccc43)nn12",
    "property label": "pIC50",
    "measured result": "5.00 to 6.00"
  },
  {
    "molecule": "COc1cccc(Nc2ncc3ccc(-c4ccccc4OC)n3n2)c1",
    "property label": "pIC50",
    "measured result": "5.00 to 6.00"
  },
  {
    "molecule": "COc1ccccc1-c1ccc2cnc(Nc3cc(OC)c(OC)c(OC)c3)nn12",
    "property label": "pIC50",
    "measured result": "6.00 to 7.00"
  }
]

In plain terms, CN1CCN(c2cccc(Nc3ncc4ccc(-c5cccc(N6CCCS6(=O)=O)c5)n4n3)c2)CC1 has a documented pIC50 of 6.00 to 7.00

In plain terms, CS(=O)(=O)Nc1cccc(-c2ccc3cnc(Nc4ccc(N5CCOCC5)cc4)nn23)c1 has a documented pIC50 of 6.00 to 7.00

In plain terms, c1cc(N2CCOCC2)ccc1Nc1ncc2ccc(-c3ccc4c(c3)OCCO4)n2n1 has a documented pIC50 of 5.00 to 6.00

In plain terms, COc1ccc(-c2ccc3cnc(Nc4ccc(C5CNCCN5)cc4)nn23)cn1 (centres unmarked) has a documented pIC50 of 6.00 to 7.00

====

tested system: ALK (Homo sapiens)
Construct: host or cells: baculovirus expression system
assay details: ALK Kinase Assay (ELISA/TRF, PLC-γ substrate)
Type: biochemical
assay conditions: ALK kinase inhibition, 1 μM ATP; read-out: ALK Potency
pIC50: −log10 of the molar value.
property label: pIC50

Please review the following examples before continuing.
[
  {
    "item smiles": "COc1ccc(C(=O)N2CCN(C)CC2)cc1Nc1ncc2ccc(-c3ccccc3OC)n2n1",
    "pIC50": "5.00 to 6.00"
  },
  {
    "item smiles": "COc1cc(C2CCN(CC(N)=O)CC2)ccc1Nc1ncc2ccc(-c3cccc(S(=O)(=O)NC(C)(C)C)c3)n2n1",
    "pIC50": "> 7.00"
  },
  {
    "item smiles": "COc1ccccc1-c1ccc2cnc(Nc3ccc4c(cnn4CCN4CCOCC4)c3)nn12",
    "pIC50": "6.00 to 7.00"
  }
]

Then there is this compound:
In plain terms, CN1CCN(c2ccc(Nc3ncc4ccc(-c5ccc(C=O)cc5)n4n3)cc2)CC1 has a documented pIC50 of 6.00 to 7.00

====

tested system: JAK2 (Homo sapiens, UniProt O60674)
Construct: host or cells: baculovirus expression system
Sequence (O60674 whole entry): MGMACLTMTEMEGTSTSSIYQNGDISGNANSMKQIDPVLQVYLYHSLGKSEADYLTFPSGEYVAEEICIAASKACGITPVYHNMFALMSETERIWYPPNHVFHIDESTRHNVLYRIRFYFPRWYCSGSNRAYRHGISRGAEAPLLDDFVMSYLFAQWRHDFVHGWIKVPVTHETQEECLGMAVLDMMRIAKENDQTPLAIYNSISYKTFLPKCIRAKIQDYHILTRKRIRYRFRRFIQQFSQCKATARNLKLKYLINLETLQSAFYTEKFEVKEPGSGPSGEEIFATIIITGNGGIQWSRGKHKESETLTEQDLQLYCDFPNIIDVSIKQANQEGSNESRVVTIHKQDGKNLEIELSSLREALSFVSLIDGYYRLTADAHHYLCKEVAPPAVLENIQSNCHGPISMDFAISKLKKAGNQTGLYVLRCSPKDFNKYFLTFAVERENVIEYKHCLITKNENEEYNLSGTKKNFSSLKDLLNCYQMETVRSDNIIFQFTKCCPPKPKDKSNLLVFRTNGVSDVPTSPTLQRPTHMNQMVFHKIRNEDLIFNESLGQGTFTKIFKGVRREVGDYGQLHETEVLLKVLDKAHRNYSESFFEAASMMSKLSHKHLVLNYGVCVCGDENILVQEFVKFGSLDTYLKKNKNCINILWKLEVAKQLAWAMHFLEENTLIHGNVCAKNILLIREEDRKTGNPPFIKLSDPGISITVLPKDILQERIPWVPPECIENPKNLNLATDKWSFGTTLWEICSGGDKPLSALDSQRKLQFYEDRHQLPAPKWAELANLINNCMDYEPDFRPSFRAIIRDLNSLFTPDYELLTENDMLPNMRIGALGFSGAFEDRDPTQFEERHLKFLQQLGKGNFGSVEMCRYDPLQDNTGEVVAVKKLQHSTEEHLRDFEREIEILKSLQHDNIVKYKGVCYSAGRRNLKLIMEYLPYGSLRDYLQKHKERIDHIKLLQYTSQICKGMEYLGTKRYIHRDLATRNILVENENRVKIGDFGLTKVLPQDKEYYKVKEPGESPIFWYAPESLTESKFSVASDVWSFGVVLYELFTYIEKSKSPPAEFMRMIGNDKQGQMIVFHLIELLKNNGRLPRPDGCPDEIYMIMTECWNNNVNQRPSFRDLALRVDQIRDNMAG
assay details: Recombinant Human JAK2 Kinase Assay (TRF)
Assay type: biochemical
assay conditions: JAK2 kinase inhibition, 0.2 μM ATP; read-out: JAK2 Potency
pIC50: −log10 of the molar value.
Each entry below lists one item and its recorded pIC50 value.

In plain terms, COc1cc(N2CCC(N3CCCN(C)CC3)CC2)ccc1Nc1ncc2ccc(-c3ccccc3N(C)S(C)(=O)=O)n2n1 has a documented pIC50 of 6.00 to 7.00

In plain terms, N#CCCn1cccc1-c1ccc2cnc(Nc3cccc(N4CCCC4=O)c3)nn12 has a documented pIC50 of > 7.00

In plain terms, COc1ccccc1-c1ccc2cnc(Nc3ccc4c(c3)C(N)C(O)C4)nn12 (stereo not shown) has a documented pIC50 of > 7.00

In plain terms, COc1cc([C@@]2(O)CCNC[C@@H]2O)ccc1Nc1ncc2ccc(-c3ccccc3OC)n2n1 (racemic) has a documented pIC50 of > 7.00

In plain terms, COc1ccc(-c2ccc3cnc(Nc4ccn(CC(=O)N5CCN(C)CC5)n4)nn23)cn1 has a documented pIC50 of > 7.00

In plain terms, CCOC(=O)c1ccccc1-c1ccc2cnc(Nc3ccc(N4CCN(C)CC4)cc3)nn12 has a documented pIC50 of > 7.00

In plain terms, COCCN1CC[C@](O)(c2ccc(Nc3ncc4ccc(-c5ccccc5N(C)S(C)(=O)=O)n4n3)c(OC)c2)[C@@H](O)C1 (racemic) has a documented pIC50 of 6.00 to 7.00

In plain terms, CC(=O)Nc1cccc(Nc2ncc3ccc(-c4cccc(C(=O)NC(C)(C)C)c4)n3n2)c1 has a documented pIC50 of > 7.00

In plain terms, COc1ccc(Cl)cc1-c1ccc2cnc(Nc3ccc(C4CCN(CC(N)=O)CC4)cc3)nn12 has a documented pIC50 of > 7.00

In plain terms, CN1C(=O)COc2cc(Nc3ncc4ccc(-c5cccc(S(=O)(=O)NC(C)(C)C)c5)n4n3)ccc21 has a documented pIC50 of > 7.00

In plain terms, COc1ccccc1-c1ccc2cnc(Nc3ccc4c(c3)CN(CC(N)=O)C4)nn12 has a documented pIC50 of > 7.00

In plain terms, COCCN1CCc2ccc(Nc3ncc4ccc(-c5cccc(CCC#N)c5)n4n3)cc2CC1 has a documented pIC50 of > 7.00

In plain terms, COc1cc([C@@]2(O)CCN(CCF)C[C@@H]2O)ccc1Nc1ncc2ccc(-c3ccccc3N(C)S(C)(=O)=O)n2n1 (racemic) has a documented pIC50 of 6.00 to 7.00

In plain terms, CN1CCN(c2ccc(Nc3ncc4ccc(-c5cccc(NS(C)(=O)=O)c5)n4n3)nc2)CC1 has a documented pIC50 of > 7.00

In plain terms, COc1cc(Cl)ccc1-c1ccc2cnc(Nc3ccc(N4CCC(C(=O)N5CCN(C)CC5)CC4)cc3)nn12 has a documented pIC50 of > 7.00

In plain terms, CC(C)S(=O)(=O)c1cccc(-c2ccc3cnc(Nc4ccc(C5CCN(CC(N)=O)CC5)cc4)nn23)c1 has a documented pIC50 of > 7.00

In plain terms, CN1C(=O)COc2cc(Nc3ncc4ccc(-c5cccc(NS(C)(=O)=O)c5)n4n3)ccc21 has a documented pIC50 of > 7.00

In plain terms, COc1cc(C2CCN(C)CC2C)ccc1Nc1ncc2ccc(-c3ccccc3OC)n2n1 (racemic) has a documented pIC50 of 6.00 to 7.00

In plain terms, COc1cc(Cn2ccnc2C)ccc1Nc1ncc2ccc(-c3ccccc3N(C)S(C)(=O)=O)n2n1 has a documented pIC50 of 5.00 to 6.00

====

tested system: ALK (Homo sapiens, UniProt Q9UM73)
Construct: host or cells: baculovirus expression system
Sequence (Q9UM73 19-1620): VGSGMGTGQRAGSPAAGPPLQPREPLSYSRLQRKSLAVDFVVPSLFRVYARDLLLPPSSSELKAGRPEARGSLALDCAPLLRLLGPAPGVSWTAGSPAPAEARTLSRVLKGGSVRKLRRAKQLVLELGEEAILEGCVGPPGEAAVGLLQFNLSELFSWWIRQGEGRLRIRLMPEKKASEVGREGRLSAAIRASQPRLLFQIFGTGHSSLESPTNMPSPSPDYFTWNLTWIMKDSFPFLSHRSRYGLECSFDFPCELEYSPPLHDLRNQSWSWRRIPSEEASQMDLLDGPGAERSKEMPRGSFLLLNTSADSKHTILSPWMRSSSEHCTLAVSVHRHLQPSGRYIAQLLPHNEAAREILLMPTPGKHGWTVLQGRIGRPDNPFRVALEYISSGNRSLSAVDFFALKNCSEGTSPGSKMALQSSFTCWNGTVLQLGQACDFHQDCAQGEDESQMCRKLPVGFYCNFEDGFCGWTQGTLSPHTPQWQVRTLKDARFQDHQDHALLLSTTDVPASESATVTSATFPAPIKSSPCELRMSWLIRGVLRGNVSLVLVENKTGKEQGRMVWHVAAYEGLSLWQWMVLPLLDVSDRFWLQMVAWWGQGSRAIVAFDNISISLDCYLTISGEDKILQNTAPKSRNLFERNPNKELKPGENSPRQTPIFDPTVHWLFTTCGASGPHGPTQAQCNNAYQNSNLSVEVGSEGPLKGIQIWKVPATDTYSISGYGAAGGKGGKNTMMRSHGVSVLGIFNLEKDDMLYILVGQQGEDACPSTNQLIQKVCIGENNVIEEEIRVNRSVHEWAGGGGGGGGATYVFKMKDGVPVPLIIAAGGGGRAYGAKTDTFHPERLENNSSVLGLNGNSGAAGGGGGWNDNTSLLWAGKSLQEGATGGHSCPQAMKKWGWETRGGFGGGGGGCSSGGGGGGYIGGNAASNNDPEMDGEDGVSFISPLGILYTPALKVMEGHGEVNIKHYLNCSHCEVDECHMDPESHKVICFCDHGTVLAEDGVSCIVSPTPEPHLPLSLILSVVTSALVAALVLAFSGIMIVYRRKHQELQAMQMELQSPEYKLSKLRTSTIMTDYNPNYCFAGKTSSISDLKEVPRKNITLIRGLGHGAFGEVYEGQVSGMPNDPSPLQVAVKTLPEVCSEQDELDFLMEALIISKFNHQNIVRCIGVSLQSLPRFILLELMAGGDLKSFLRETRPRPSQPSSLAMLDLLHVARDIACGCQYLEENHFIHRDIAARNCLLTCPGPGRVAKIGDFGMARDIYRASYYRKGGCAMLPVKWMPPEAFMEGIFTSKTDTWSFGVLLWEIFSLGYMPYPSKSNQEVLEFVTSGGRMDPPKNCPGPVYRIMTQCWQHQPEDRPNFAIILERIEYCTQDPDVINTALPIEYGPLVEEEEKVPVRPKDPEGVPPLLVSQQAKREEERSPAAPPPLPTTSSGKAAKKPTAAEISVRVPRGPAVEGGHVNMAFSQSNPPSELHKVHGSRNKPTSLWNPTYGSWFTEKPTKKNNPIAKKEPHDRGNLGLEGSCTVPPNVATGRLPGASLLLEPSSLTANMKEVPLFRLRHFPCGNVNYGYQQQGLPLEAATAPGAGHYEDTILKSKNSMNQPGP
assay details: ALK Kinase Assay (ELISA/TRF, PLC-γ substrate)
Assay type: biochemical
assay conditions: ALK kinase inhibition, 1 μM ATP; read-out: ALK Potency
pIC50: −log10 of the molar value.
property label: pIC50

Please review the following examples before continuing.
[
  {
    "item smiles": "COc1ccc(-c2ccc3cnc(Nc4ccc5nc(CO)[nH]c5c4)nn23)cn1",
    "tested system": "ALK (Homo sapiens, UniProt Q9UM73)",
    "measured result": "5.00 to 6.00"
  },
  {
    "item smiles": "COc1cc(C2CCN(CCF)CC2)ccc1Nc1ncc2ccc(-c3ccccc3N(C)S(C)(=O)=O)n2n1",
    "tested system": "ALK (Homo sapiens, UniProt Q9UM73)",
    "measured result": "> 7.00"
  }
]

In plain terms, COc1c(Nc2ncc3ccc(-c4ccccc4N(C)S(C)(=O)=O)n3n2)cccc1C(=O)N1CCN(C)CC1 has a documented pIC50 of 6.00 to 7.00

In plain terms, COc1ccccc1-c1ccc2cnc(Nc3ccc4c(c3)CCN(C)C4)nn12 has a documented pIC50 of > 7.00

====

Each entry below lists one item and its recorded IC50 value.
tested system: ALK (Homo sapiens)
Construct: host or cells: baculovirus expression system
assay details: ALK Kinase Assay (ELISA/TRF, PLC-γ substrate)
Assay type: biochemical
assay conditions: ALK kinase inhibition, 1 μM ATP; read-out: ALK Potency

Please review the following examples before continuing.
[
  {
    "item smiles": "COc1ccc(-c2ccc3cnc(Nc4cccc(N)c4)nn23)cn1",
    "tested system": "ALK (Homo sapiens)",
    "IC50": "1000 to 10000 nM"
  },
  {
    "item smiles": "COc1cc(N2CCN(C[C@H](O)CO)CC2)ccc1Nc1ncc2ccc(-c3ccccc3OC)n2n1",
    "tested system": "ALK (Homo sapiens)",
    "IC50": "< 100 nM"
  }
]

In plain terms, COc1cc(C2CCN(C)CC2)ccc1Nc1ncc2ccc(-c3cccc(S(=O)(=O)NC4CC4)c3)n2n1 has a documented IC50 of < 100 nM

In plain terms, CCN(c1ccccc1-c1ccc2cnc(Nc3ccc(C4CCN(C[C@H](O)CO)CC4)cc3OC)nn12)S(C)(=O)=O has a documented IC50 of < 100 nM
